Measured Number of mice that died on each day after infection: day 3 accompanies every entry in the list below.
test system: Pseudomonas aeruginosa ATCC 27853; experiment: Injectable formulations on mice infected with peritonitis; assay type: in vivo, ICR mice; conditions: 5 mg/kg via tail vein, twice a day for 3 days, n = 10
Non-standard residues stand in square brackets, D forms with d. Residues, ends and D or L forms follow the SMILES beside them. dPhe(3,4-F2) = N[C@H](Cc1ccc(F)c(F)c1)C(=O)O; d2Nal = N[C@H](Cc1ccc2ccccc2c1)C(=O)O

Known Number of mice that died on each day after infection: day 3 results, listed for orientation:
Incoming: What value of measured Number of mice that died on each day after infection: day 3 is listed for CC(=O)N[C@H](CCCNC(=N)N)C(=O)N[C@H](CCCCN)C(=O)N[C@H](CC(C)C)C(=O)N[C@H](CC(C)C)C(=O)N[C@H](Cc1ccc(F)c(F)c1)C(=O)N[C@H](CCCCN)C(=O)N[C@H](CC(C)C)C(=O)N[C@H](CCCCN)C(=O)N[C@H](Cc1ccc(F)c(F)c1)C(=O)N[C@H](CCCCN)C(=O)N[C@H](CCCNC(=N)N)C(N)=O [LV-6] (Ac-[dR][dK][dL][dL][dPhe(3,4-F2)][dK][dL][dK][dPhe(3,4-F2)][dK][dR]-NH2) ?
Outgoing: 1 Mouse

Incoming: What value of measured Number of mice that died on each day after infection: day 3 is listed for CC(=O)N[C@H](CCCNC(=N)N)C(=O)N[C@H](CCCCN)C(=O)N[C@H](CC(C)C)C(=O)N[C@H](CC(C)C)C(=O)N[C@H](Cc1ccc2ccccc2c1)C(=O)N[C@H](CCCNC(=N)N)C(=O)N[C@H](CC(C)C)C(=O)N[C@H](CCCCN)C(=O)N[C@H](Cc1ccc2ccccc2c1)C(=O)N[C@H](CCCNC(=N)N)C(=O)N[C@H](CCCCN)C(N)=O [LV-20] (Ac-[dR][dK][dL][dL][d2Nal][dR][dL][dK][d2Nal][dR][dK]-NH2) ?
Outgoing: 0 Mouse

Here is another compound to look at.
Incoming: What value of measured Number of mice that died on each day after infection: day 3 is listed for C[C@H]1COc2c(N3CCN(C)CC3)c(F)cc3c(=O)c(C(=O)O)cn1c23 [Levofloxacin, reference compound] ?
Outgoing: 1 Mouse

Reference for the values: patent US20250304620A1
